Data credit: the supplement of paper PMC10567573

B1: SLC2A12 (parent)
chain: LTLVFFVQITGQPNILFYASTVLK

# Variants of: B1
# experiment-description: protein stability index of a GFP-peptide fusion (GPS, HEK-293T) (PSI 1-6); higher = more stable;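 also: lentivirally expressed fusions sorted by FACS into six bins by GFP to DsRed ratio, PSI derived from sequencing read proportions per bin multiplied by bin number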
# stated-conditions: c terminus: a fixed tail appended
endpoint: protein stability index

Guide cases for protein stability index, answers given:
{"mutation-key": "K24I", "protein stability index": 2.92}
{"mutation-key": "G11L", "protein stability index": 2.33}
{"mutation-key": "L23H", "protein stability index": 2.38}
{"mutation-key": "V7D", "protein stability index": 3.27}
{"mutation-key": "V4M", "protein stability index": 2.09}

Look up protein stability index for the entries below, preserving their order.
1. I9R
2. F6W
3. G11N
4. F6G
5. Q8P

3.42
2.85
3.96
3.11
2.51

Look up protein stability index for the entries below, preserving their order.
1. P13V
2. T21S
3. N14S
4. K24F

3.35
3.13
2.14
3.17

Look up protein stability index for the entries below, preserving their order.
1. L1G
2. I9H
3. L23E
4. S20N
5. L3M
6. N14Y
7. V7M
8. I9T

1. 4.08
2. 4.79
3. 2.83
4. 2.84
5. 3.15
6. 1.5
7. 4.19
8. 3.18

Look up protein stability index for the entries below, preserving their order.
1. T2E
2. L3E
3. T2P
4. V4D
5. A19L
6. N14D
7. Q12K
8. L3R

1.69
4.85
2.78
3.68
3.37
3.93
3.74
2.29

Look up protein stability index for the entries below, preserving their order.
1. Q12V
2. V7K
3. Q12C
4. T2G
5. T2F
6. L1M

2.91
1.59
2.83
2.15
2.44
3.03

Look up protein stability index for the entries below, preserving their order.
1. T2Y
2. F17H
3. I9M
4. T10Y
5. F5H
6. N14L
7. L23Y

3.04
3.19
3.4
3.46
1.93
3.78
3.92

Look up protein stability index for the entries below, preserving their order.
1. V4Y
2. V4H
3. L1S
4. I15K

1: 2.54; 2: 3.15; 3: 3.18; 4: 2.67
